# PROCEDURE_TEXT: Partition coefficient (logP)
# Assay type: physicochemical
# CONDITION_SUMMARY: octanol/water
Examples of compounds with documented logP follow.

{"COMPOUND": "O=C1OC(Cc2ccccc2)C/C1=C/c1cccc2ccccc12 (stereo unspecified)", "logP": 5.08}
{"COMPOUND": "C=C1CC(C(C)O)OC1=O (stereo unspecified)", "logP": 0.45}
{"COMPOUND": "CC(C)/C=C1/CC(Cc2ccccc2)OC1=O (stereo unspecified)", "logP": 3.59}
{"COMPOUND": "C=C1CC(C)NC1=O (stereo unspecified)", "logP": 0.17}
{"COMPOUND": "C=C1CC(C)OC1=O (stereo unspecified)", "logP": 0.82}
{"COMPOUND": "C=C1CC(CC)OC1=O (stereo unspecified)", "logP": 1.29}
{"COMPOUND": "C=C1CC(CCCCC)NC1=O (stereo unspecified)", "logP": 1.83}
{"COMPOUND": "C=C1CC(C(O)CCC)OC1=O (stereo unspecified)", "logP": 1.31}
{"COMPOUND": "C=C1CC(CC)NC1=O (stereo unspecified)", "logP": 0.64}
{"COMPOUND": "C=C1CC(CCCCC)OC1=O (stereo unspecified)", "logP": 2.48}
{"COMPOUND": "O=C1OC(Cc2ccccc2)C/C1=C/c1ccccc1 (stereo unspecified)", "logP": 4.08}
{"COMPOUND": "C=C1CC(Cc2ccccc2)OC1=O (stereo unspecified)", "logP": 2.51}
{"COMPOUND": "C=C1CC(C(O)c2ccccc2)OC1=O (stereo unspecified)", "logP": 1.88}
{"COMPOUND": "C=C1CC(Cc2ccc(OC)c(OC)c2)NC1=O (stereo unspecified)", "logP": 1.35}
{"COMPOUND": "C=C1CC(Cc2ccccc2)NC1=O (stereo unspecified)", "logP": 1.86}
{"COMPOUND": "C=C1CC(Cc2ccc(OC)c(OC)c2)OC1=O (stereo unspecified)", "logP": 2}

Where do these numbers come from? They come from ChEMBL document CHEMBL1139508.
